# test.description: Lipid levels in liver and spleen 48 hours after administration
# Format: in vivo, rats
# experimental.context: rat liver, 48 h
Assignment: determine reported % dose remainng Rat liver (48 h) for the given molecules.
Give just the number in %; leave the unit off.

Need % dose remainng Rat liver (48 h) of CCCCCCCCCN(CCCCCCCCC)CCN(CCCCCCCCC)CC(=O)N1CCN(C(=O)CN(CCCCCCCCC)CCCC(=O)OCCCCC)CC1 , thanks.
8.57

Recorded % dose remainng Rat liver (48 h) of CCCCCCCCCN(CCCCCCCCC)CCN(CCCCCCCCC)CC(=O)N1CCN(C(=O)CN(CCCCCCCCC)CCCCCCCCC)CC1 , please.
37.82

Consider the molecule CCCCCC=CCC=CCCCCCCCCC(CCCCCCCCC=CCC=CCCCCC)OC(=O)CCCN(C)C (stereo not shown) [MC3, reference compound] and give its measured % dose remainng Rat liver (48 h).
43.11

Give its % dose remainng Rat liver (48 h) value. Item: CCCCCCCCCN(CCCCCCCCC)CCC1CCN(C(=O)CN(CCCCCCCCC)CCN(CCCCCCCCC)CCCCCCCCC)CC1
38.45

---

So I've got a bunch of molecules here, and I need their IP-10 values.
# Test system: IP-10
# test.description: Cytokine production induced by sample formulations: IP-10
# Assay type: in vivo
# experimental.context: Table 4; mice, i.v., 0.5 mpk, 6 hours; in pg/mL (unit assumed)
Give the figure by itself; no unit, no explanation.

What value of measured IP-10 is listed for CCCCCCCCCCCCCCN(CCCCCCCCCCCCCC)CCN(CCCCCCCCCCCCCC)CCN1CCN(CCN(CCCCCCCCCCCCCC)CCCCCCCCCCCCCC)CC1 [Compound 32] ?
727

// lookup IP-10 for CCCCCCCCCCCCCCN(CCCCCCCCCCCCCC)CCN(CCCCCCCCCCCCCC)CCN1CCN(CCN(CCCCCCCCCCCC)CCCCCCCCCCCC)CC1 [Compound 31]
2513

Could you share which IP-10 value was measured for CCCCCCCCCCCCN(CCCCCCCCCCCC)CCN1CCN(CCN(CCCCCC)CCN(CCCCCC)CCCCCC)CC1 [Compound 17] ?
545

Which value of IP-10 has been reported for CCCCCCCCCCCCN(CCCCCCCCCCCC)CCN(CCCCCCCCCCCC)CCN1CCN(C(=O)CN(CCCCCCCCCCCC)CCCCCCCCCCCC)CC1 [Compound 3] in the records?
341

# lookup: IP-10 of CCCCCCCCCCCCN(CCCCCCCCCCCC)CCN(CCCCCCCCCCCC)CCN1CCN(CCN(CCCCCCCCC)CCCCCCCCC)CC1 [Compound 23]
3702

Using the record for CCCCCCCCCCCCN(CCCCCCCCCCCC)CCN(CCCCCCCCCCCC)CCN1CCN(CCN(CCCCCCCCCCCC)CCCCCC(=O)OCCCCC)CC1 [Compound 12] , report its IP-10.
2382

---

# test.description: Encapsulation efficiency of RNA (QUANT-IT RIBOGREEN RNA assay)
# Assay type: physicochemical
# experimental.context: Table 1; * lipid:DSPC:Chol:PEG-DMG 50:10:38.5:1.5
readout.kind: EE (%)
Write the answer as a number in %, unit excluded.

Param item = CCCCC/C=C\C/C=C\CCCCCCCCN(CCCCCCCC/C=C\C/C=C\CCCCC)CCN(CCCCCCCC/C=C\C/C=C\CCCCC)CCN1CCN(CCN(CCCCCCCCCCCC)CCCCCCCCCCCC)CC1 ; retrieve measured EE (%).
98.1

What value of EE (%) has been reported for the following molecule? CCCCC/C=C\CCCCCN(CCCCCCCCCCCC)CCN1CCN(CCN(CCCCCCCCCCCC)CCN(CCCCCCCCCCCC)CCCCCCCCCCCC)CC1
36.4

EE (%) lookup needed for CCCCCCCCCCCCN(CCCCCCCCCCCC)CCN1CCN(C(=O)CN(CCCCCCCCCCCC)CCN(CCCCCCCCCCCC)CCCCCCCCCCCC)CC1 , thanks.
96

// lookup EE (%) for CCCCCCCCCCCCN(CCCCCCCCCCCC)CCN(CCCCCCCCCCCC)CCN1CCNCC1
99.9

I'd like to know its EE (%). The molecule in question is CCCCCCCCCN(CCCCCCCCC)CCN(CCCCCCCCC)CCN1CCNCC1
100.2

Could you tell me which EE (%) is on file for CCCCCCCCCCCCCCN(CCCCCCCCCCCCCC)CCN1CCN(CCN(CCCCCCCCCCCC)CCN(CCCCCCCCCCCC)CCCCCCCCCCCC)CC1 ?
84.9

For the molecule CCCCC/C=C\C/C=C\CCCCCCCCN(CCCCCCCC/C=C\C/C=C\CCCCC)CCN(CCCCCCCC/C=C\C/C=C\CCCCC)CCN1CCNCC1 , what EE (%) is on record?
99.9

# get_value(readout='EE (%)', item= CCCCCCCC/C=C\CCCCCCCCN(CCCCCCCC/C=C\CCCCCCCC)CCN(CCCCCCCC/C=C\CCCCCCCC)CCN1CCNCC1 )
100.0

---

# test.description: Particle size and polydispersity index of nanoparticle compositions (Zetasizer Nano ZS)
# Assay type: physicochemical
# experimental.context: comparison amongst compositions
# Description: A Zetasizer Nano ZS (Malvern Instruments Ltd, Malvern, Worcestershire, UK) can be used to determine the particle size, the polydispersity index (PDI) and the zeta potential of the nanoparticle compositions in 1×PBS in determining particle size and 15 mM PBS in determining zeta potential.
readout.kind: particle size, rank within the named table (in words)

compound=CCCCC/C=C\C/C=C\CCCCCCCCN(CCCCCCCC/C=C\C/C=C\CCCCC)CCN1CCNCC1 observed_value="smallest particles"
compound=CCCCCCCCCCCCN(CCCO)CCCCCCCCCCCC observed_value="smallest particles"
compound=CCCCCCCCCCCCN(CCCCCCCCCCCC)CCN(CCO)CCCCCCCC(=O)OCCCCCCCCC observed_value="smallest particles"
compound=CCCCCCCCCCCCN(CCCCCCCCCCCC)CCN(CCO)CCCCCCCC(=O)OC(CCCCCCCC)CCCCCCCC observed_value="smallest particles"
compound=CCCCCCCCCCCCCCN(CCO)CCN(CCCCCCCCCCCCCC)CCCCCCCCCCCCCC observed_value="largest particles"
compound=CCCCCCCCCCCCN(CCCCCCCCCCCC)CCN1CCN(CCN(CCCCCCCCCCCC)C(=O)CN(CCCCCCCCCCCC)CCCCCCCCCCCC)CC1 observed_value="largest particles"
compound=CCCCCCCCCN(CCO)CCCCCCCCC observed_value="largest particles"

Turning now to a further compound:
Fill blank: measured particle size, rank within the named table (in words) of the compound CCCCC/C=C\C/C=C\CCCCCCCCC1(CCCCCCCC/C=C\C/C=C\CCCCC)CC1CN(C)C (centres unmarked) is ____.
largest particles

---

# test.description: Encapsulation efficiency of RNA (QUANT-IT RIBOGREEN RNA assay)
# Type: physicochemical
# experimental.context: Table 1; rows without footnote mark
Kindly supply the reported EE (%) values for the records listed here.
Give the number; % is assumed, so skip it.

Entry CCCCCCCCCN(CCCCCCCCC)CCN(CCCCCCCCC)CC(=O)N1CCN(C(=O)CN(CCCCCCCCC)CCCCCCCC(=O)OC)CC1 [Compound 44] has what EE (%)?
89.5

Tell me the measured EE (%) of CCCCCCCCCCCCN(CCCCCCCCCCCC)CC(=O)N1CCN(C(=O)CN(CCCCCCCCC)CCN(CCCCCCCCC)CCCCCCCCC)CC1 [Compound 8] , please.
98.5

EE (%) for CCCCCCCCCN(CCCCCCCCC)CCN(CCCCCCCC(=O)OC)CC(=O)N1CCN(C(=O)CN(CCCCCCCCC)CCCCCCCCC)CC1 [Compound 47] ?
53.1

Entry CCCCCCCCCCCCN(CCCCCCCCCCCC)CCN(CCCCCCCCCCCC)CC(=O)N1CCN(C(=O)CN(CCCCCCCCC)CCCCCCCCC)CC1 [Compound 7] : reported EE (%) = ?
99.1

Entry under review: CCCCCCCCCCCCN(CCCCCCCCCCCC)CCN(CCCCCCCCCCCC)CCN1CCN(CCN(CCCCCCCCCCCC)CCCCCC(=O)OCCCCC)CC1 [Compound 12] . Reported EE (%)?
96.9

So what does the record say about EE (%) for CCCCCCCCCCCCN(CCCCCCCCCCCC)CCN(CCCCCCCCCCCC)CCN1CCN(CCN(CCCCCCCCC)CCCCCCCCC)CC1 [Compound 23] ?
82.9

---

# test.description: pKa of nanoparticle compositions
# Format: physicochemical
# experimental.context: Table 1; * lipid:DSPC:Chol:PEG-DMG 50:10:38.5:1.5
Consider the following compounds; for each one, report its pKa.

For the compound CCCCC/C=C\C/C=C\CCCCCCCCN(CCCCCCCC/C=C\C/C=C\CCCCC)CCN(CCCCCCCC/C=C\C/C=C\CCCCC)CCN1CCN(CCN(CCCCCCCCCCCC)CCCCCCCCCCCC)CC1 , what pKa is on record?
5.74

Returns the measured pKa for the input compound. Input: CCCCC/C=C\CCCCCN(CCCCCCCCCCCC)CCN1CCN(CCN(CCCCCCCCCCCC)CCN(CCCCCCCCCCCC)CCCCCCCCCCCC)CC1
6.01

Reported pKa, compound CCCCCCCCCN(CCCCCCCCC)CCN(CCCCCCCCC)CCN1CCNCC1 : ____
7.81

Would you mind telling me what pKa value was observed for CCCCCCCCCCCCN(CCCCCCCCCCCC)CCN1CCN(C(=O)CN(CCCCCCCCCCCC)CCN(CCCCCCCCCCCC)CCCCCCCCCCCC)CC1 ?
6.39

Need pKa, item CCCCCCCCCCCCN(CCCCCCCCCCCC)CCN(CCCCCCCCCCCC)CCN1CCNCC1
6.45

I'd like to know its pKa. The compound in question is CCCCCCCC/C=C\CCCCCCCCN(CCCCCCCC/C=C\CCCCCCCC)CCN(CCCCCCCC/C=C\CCCCCCCC)CCN1CCNCC1
6.78

Return reported pKa; argument: CCCCCCCCCCCCCCN(CCCCCCCCCCCCCC)CCN1CCN(CCN(CCCCCCCCCCCC)CCN(CCCCCCCCCCCC)CCCCCCCCCCCC)CC1
6.19

What does the record list as pKa for CCCCC/C=C\C/C=C\CCCCCCCCN(CCCCCCCC/C=C\C/C=C\CCCCC)CCN(CCCCCCCC/C=C\C/C=C\CCCCC)CCN1CCNCC1 ?
7.02
